System: THLE3 (liver origin)
assay: RealTime-Glo MT cell viability assay, noncancerous normal cells
Format: cell-based, Human
test.settings: Homo sapiens; THLE3, 24 hours
Protocol: Cell viability was measured in real time using RealTime-Glo MT Cell Viability Assay as according to manufacturer's instructions from Promega. Cells were seeded at 1 × 10^4 cells per well and treated with a range of doses of indicated antagonists, followed by continuous bioluminescence reading every 24 hours for 3 days using luminescent plate reader, Varioskan (SkanIT software). IC50 was determined using GraphPad Prism software. […]
measured.metric: IC50

| sample.smiles | IC50 |
| --- | --- |
| CN[C@@H](C)C(=O)N[C@H](C(=O)N1CCC[C@H]1C(=O)Nc1sc(-c2ncco2)nc1-c1ccccc1)C1CCCCC1 | 40.2 µM |

Hi, could you look up IC50 for each item in my list?
1. CN[C@@H](C)C(=O)N[C@H](C(=O)N1CCC[C@H]1c1nc(C(=O)c2ccc(F)cc2)cs1)C1CCCCC1
2. CN[C@@H](C)C(=O)N[C@H]1CN(C(=O)CC(C)C)CC[C@H]2CC[C@@H](C(=O)NC(c3ccccc3)c3ccccc3)N2C1=O

["> 60 µM", "> 100 µM"]

----------
System: THLE3 (liver origin)
assay: RealTime-Glo MT cell viability assay, noncancerous normal cells
Assay type: cell-based, Human
test.settings: Homo sapiens; THLE3, 48 hours
measured.metric: pIC50
One number for each entry, as −log10 of the molar value.

| compound | measurement |
| --- | --- |
| CN[C@@H](C)C(=O)N[C@H]1CN(C(=O)CC(C)C)CC[C@H]2CC[C@@H](C(=O)NC(c3ccccc3)c3ccccc3)N2C1=O [Debio 1143] | 4.14 |

Hi, could you look up pIC50 for each item in my list?
1. CN[C@@H](C)C(=O)N[C@H](C(=O)N1CCC[C@H]1C(=O)Nc1sc(-c2ncco2)nc1-c1ccccc1)C1CCCCC1 [CUDC-427]
2. CN[C@@H](C)C(=O)N[C@H](C(=O)N1CCC[C@H]1c1nc(C(=O)c2ccc(F)cc2)cs1)C1CCCCC1 [LCL161]

1. 4.54
2. 4.62

----------
For each of the compounds below, state its IC50.
System: NB1
assay: RealTime-Glo MT cell viability assay
Assay type: cell-based, Human
test.settings: Homo sapiens; NB1, 24 hours

See these solved cases before continuing.
| sample.smiles | measurement |
| --- | --- |
| CN[C@@H](C)C(=O)N[C@H](C(=O)N1CCC[C@H]1C(=O)Nc1sc(-c2ncco2)nc1-c1ccccc1)C1CCCCC1 | 42 µM |
| CN[C@@H](C)C(=O)N[C@H]1CN(C(=O)CC(C)C)CC[C@H]2CC[C@@H](C(=O)NC(c3ccccc3)c3ccccc3)N2C1=O | > 100 µM |

Lab note: next compound to report on.
Record `CN[C@@H](C)C(=O)N[C@H](C(=O)N1CCC[C@H]1c1nc(C(=O)c2ccc(F)cc2)cs1)C1CCCCC1` : what is its IC50 with NB1?
> 60 µM

----------
For each of the molecules below, state its IC50.
System: NBL27-0218A patient-derived neuroblastoma cells
assay: RealTime-Glo MT cell viability assay
Assay type: cell-based, Human
test.settings: Homo sapiens, Neuroblastoma cell, 48 hours
Give bare numbers, in µM.

| sample.smiles | tgt | measurement |
| --- | --- | --- |
| CN[C@@H](C)C(=O)N[C@H](C(=O)N1CCC[C@H]1C(=O)Nc1sc(-c2ncco2)nc1-c1ccccc1)C1CCCCC1 | NBL27-0218A patient-derived neuroblastoma cells | 30.4 |

Lab note: next molecule to report on.
Which IC50 reading was recorded for the molecule `CN[C@@H](C)C(=O)N[C@H](C(=O)N1CCC[C@H]1c1nc(C(=O)c2ccc(F)cc2)cs1)C1CCCCC1` ?
32.5
